- experimentalConditions: in isopentanol, 323.15 K
quantityName: solubility (mole fraction)
Reply with just the number.

Request: Kindly indicate its recorded solubility (mole fraction). Item: CCC[C@H](N)C(=O)O
Response: 0.00183

---

- experimentalConditions: in methyl acetate, 303.15 K
quantityName: solubility (mole fraction)
Reply with just the number.

Request: Kindly indicate its recorded solubility (mole fraction). Item: CCC[C@H](N)C(=O)O
Response: 9.03e-05

---

- experimentalConditions: in isopropanol, 303.15 K
quantityName: solubility (mole fraction)
Reply with just the number.

Request: Kindly indicate its recorded solubility (mole fraction). Item: CCC[C@H](N)C(=O)O
Response: 0.0015

---

- experimentalConditions: in acetonitrile, 313.15 K
quantityName: solubility (mole fraction)
Reply with just the number.

Request: Kindly indicate its recorded solubility (mole fraction). Item: CCC[C@H](N)C(=O)O
Response: 8.02e-05

---

- experimentalConditions: in ethyl acetate, 318.15 K
quantityName: solubility (mole fraction)

Request: Kindly indicate its recorded solubility (mole fraction). Item: CCC[C@H](N)C(=O)O
Response: 0.0005

---

- experimentalConditions: in methanol, 303.15 K
quantityName: solubility (mole fraction)
Reply with just the number.

Request: Kindly indicate its recorded solubility (mole fraction). Item: CCC[C@H](N)C(=O)O
Response: 0.00109

FYI, the data here is from BigSolDB 2.1.
